Readings of GI50 for the listed molecules
# System: IGROV-1
# procedure_text: NCI tumour cell line growth inhibition, 48 h
Activity calls are given as the source filed them. No stated cut-off is given here; in the data, active = GI50 up to about 1.1 µM and inactive = higher.
measure_name: GI50

molecule=O=C(O)c1cc(Sc2ccc([N+](=O)[O-])c(C(=O)O)c2)ccc1[N+](=O)[O-] study_target=IGROV-1 measured="> 100 µM (inactive)"
molecule=CN(C)Cc1cc(C(=O)O)cc(CN(C)C)c1O study_target=IGROV-1 measured="> 100 µM (inactive)"
molecule="CC(=O)OCC12C(=O)C[C@@H](C)C3(CC(c4ccoc4)OC3=O)C1CCC(OC(C)=O)C21CO1 (stereo partly drawn)" study_target=IGROV-1 measured="> 100 µM (inactive)"
molecule=c1cnc2nc3n(c2c1)CSC3 study_target=IGROV-1 measured="> 100 µM (inactive)"
molecule=CC(=O)NC1=C(C)C(=O)c2c(nc3n2CC[C@H]3OC(C)=O)C1=O study_target=IGROV-1 measured="3.07 µM (inactive)"
molecule="O=[N+]([O-])c1cc(C2ON=C(c3ccccc3)N2C23CC4CC(CC(C4)C2)C3)ccc1Cl (stereo not drawn)" study_target=IGROV-1 measured="> 100 µM (inactive)"
molecule=CC(C)(C)c1cc(C(=O)/C=C/C=C/c2ccccc2)cc(C(C)(C)C)c1O study_target=IGROV-1 measured="33.3 µM (inactive)"
molecule=O=S(=O)(Nc1ccccc1)c1ccc(-c2c3nc(c(-c4ccc(S(=O)(=O)Nc5ccccc5)cc4)c4ccc([nH]4)c(-c4ccc(S(=O)(=O)Nc5ccccc5)cc4)c4nc(c(-c5ccc(S(=O)(=O)Nc6ccccc6)cc5)c5ccc2[nH]5)C=C4)C=C3)cc1 study_target=IGROV-1 measured="> 93.3 µM (inactive)"
